molecular target: α1b-adrenoceptor (recombinant) (Homo sapiens, UniProt P35368); test: Radioligand binding, cloned α1b-adrenoceptor ([3H]prazosin); details: read-out: Affinity for recombinant α1b-adrenoceptor, cloned receptors (Ki)
Sequence (P35368 whole entry): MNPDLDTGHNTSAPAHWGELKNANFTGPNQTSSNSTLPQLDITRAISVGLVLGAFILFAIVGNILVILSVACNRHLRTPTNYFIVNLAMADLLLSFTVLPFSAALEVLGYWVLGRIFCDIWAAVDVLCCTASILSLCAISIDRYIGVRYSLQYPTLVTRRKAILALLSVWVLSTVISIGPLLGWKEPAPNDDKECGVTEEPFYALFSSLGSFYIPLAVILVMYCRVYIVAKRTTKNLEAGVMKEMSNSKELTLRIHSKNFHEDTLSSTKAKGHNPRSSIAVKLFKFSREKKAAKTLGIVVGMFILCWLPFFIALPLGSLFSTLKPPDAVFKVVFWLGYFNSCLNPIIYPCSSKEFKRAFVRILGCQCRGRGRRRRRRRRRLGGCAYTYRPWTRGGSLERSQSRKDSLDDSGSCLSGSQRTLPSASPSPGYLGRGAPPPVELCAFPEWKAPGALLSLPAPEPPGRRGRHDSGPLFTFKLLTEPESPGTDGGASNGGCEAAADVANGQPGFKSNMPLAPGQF
Where a name gives a salt, the structure may show the parent alone.
METRIC: pKi
Answers are plain numbers, as −log10 of the molar value.

Lab note: need pKi for `COc1ccc(OCC(F)(F)F)cc1N1CCN(CCCNC(=O)c2cccc3c(=O)c(C)c(C(N)=O)oc23)CC1` on α1b-adrenoceptor (recombinant) (Homo sapiens, UniProt P35368), anyone have it?
7.02

Query `COc1ccc(C(F)(F)F)cc1N1CCN(CCCNC(=O)c2cccc3c(=O)c(C)c(-c4ccccc4)oc23)CC1` next
8.03

Query `COc1ccc(C#N)cc1N1CCN(CCCNC(=O)c2cccc3c(=O)c(C)c(-c4ccccc4)oc23)CC1` next
7.00

Query Cc1c(-c2ccccc2)oc2c(C(=O)NCCCN3CCN(c4cc(Cl)ccc4OS(=O)(=O)C(F)(F)F)CC3)cccc2c1=O [Example 24, hydrochloride] next
8.11

Query `Cc1c(C(N)=O)oc2c(C(=O)NCCCN3CCN(c4cc(F)ccc4OCC(F)(F)F)CC3)cccc2c1=O` next
8.00

The following molecules each have a reported value; give each one's pKi.
1. Cc1c(-c2ccccc2)oc2c(C(=O)NCCCN3CCN(c4ccc(F)cc4OCC(F)(F)F)CC3)cccc2c1=O
2. CCOC(=O)c1oc2c(C(=O)NCCCN3CCN(c4cc(Cl)ccc4OC)CC3)cccc2c(=O)c1C
3. Cc1c(-c2ccccc2)oc2c(C(=O)NCCCN3CCN(c4cc(F)ccc4OCC(F)(F)F)CC3)cccc2c1=O
4. COc1ccc(Cl)cc1N1CCN(CCCNC(=O)c2cccc3c(=O)c(C)c(C#N)oc23)CC1

8.58
10.10
8.45
9.11

The following molecules each have a reported value; give each one's pKi.
1. COc1ccc(Cl)cc1N1CCN(CCCNC(=O)c2cccc3c(=O)c(C)c(C(=O)N(C)C)oc23)CC1
2. Cc1c(C(N)=O)oc2c(C(=O)NCCCN3CCN(c4cc(Cl)ccc4O)CC3)cccc2c1=O

1. 8.45
2. 8.69

The following molecules each have a reported value; give each one's pKi.
1. CNC(=O)c1oc2c(C(=O)NCCCN3CCN(c4cc(Cl)ccc4OC)CC3)cccc2c(=O)c1C
2. COc1ccc(Cl)cc1N1CCN(CCCNC(=O)c2cccc3c(=O)c(C)c(NC(=O)OC(C)(C)C)oc23)CC1.O [Example 3, monohydrate]
3. Cc1c(-c2ccccc2)oc2c(C(=O)NCCCN3CCN(c4ccccc4OCC(F)(F)F)CC3)cccc2c1=O
4. Cc1c(-c2ccccc2)oc2c(C(=O)NCCCN3CCN(c4cc(Cl)ccc4OCC(F)(F)F)CC3)cccc2c1=O

8.62
9.49
8.22
8.72
